method: in vitro
settings: human, hela cells, % viability
recorded.endpoint: viability at 28.5 h, 10 µM (%)
Use % as the unit, but write only the number.

Cc1cnn(CC2CC2)c1NC(=O)Cc1csc(N2CCCC2=O)n1	92.4
COc1ccc(NC(=O)Nc2cc3cccnc3c(Br)n2)c(C)c1	96.8
CC(C)[C@H]1NC(=O)[C@@H]2[C@@H](NC(=O)NC3CCCCC3)CCN2C1=O	113

Incoming: Provide measured viability at 28.5 h, 10 µM value, entry: Cc1c(Cl)c([N+](=O)[O-])nn1CC(=O)N1CCN(C)CC1
Outgoing: 89.4

Incoming: Provide measured viability at 28.5 h, 10 µM value, entry: CCn1cnnc1SCC(=O)Nc1ccc(CN2CCOCC2)cc1
Outgoing: 97.4

Incoming: Provide measured viability at 28.5 h, 10 µM value, entry: CCC1(CC)OC(NC2CCCc3ccccc32)=NC1=O (stereo not shown)
Outgoing: 99.1

Incoming: Provide measured viability at 28.5 h, 10 µM value, entry: COc1ccc(C2N3CCCN2CC3)cc1 (stereo not shown)
Outgoing: 92.3

* * *

The entries below are paired with their reported viability at 28.5 h, 10 µM.
method: in vitro
settings: human, hela cells, % viability

CCCC(=O)Nc1ccc(-c2csc(N3CCCC3=O)n2)cc1	82%

Incoming: Provide measured viability at 28.5 h, 10 µM value, entry: O=C(CSCc1c(F)cccc1Cl)Nc1ccc(S(=O)(=O)N2CCCCCC2)cc1
Outgoing: 100%

Incoming: Provide measured viability at 28.5 h, 10 µM value, entry: CCn1cc(C(=O)N2CCCC2c2nc3ccccc3[nH]2)c(C)n1 (stereo not shown)
Outgoing: 90.2%

Incoming: Provide measured viability at 28.5 h, 10 µM value, entry: N#CCCN(C(=O)NCCN1CCOCC1)C1CCCCC1
Outgoing: 107%

Incoming: Provide measured viability at 28.5 h, 10 µM value, entry: CC(=O)N1CCc2nc(NC(=O)c3cccs3)sc2C1
Outgoing: 74.9%

Incoming: Provide measured viability at 28.5 h, 10 µM value, entry: O=C(CN1C(=O)c2ccccc2C1=O)Nc1sc2c(c1C(=O)NCC1CCCO1)CCC2 (stereo not shown)
Outgoing: 109%

Incoming: Provide measured viability at 28.5 h, 10 µM value, entry: O=C(O)c1cc(NS(=O)(=O)c2ccc([N+](=O)[O-])cc2)ccc1O
Outgoing: 110%

Incoming: Provide measured viability at 28.5 h, 10 µM value, entry: Cc1cc(C[C@@H]2COC[C@H]2NCc2c(F)cccc2Cl)on1
Outgoing: 83.4%

* * *

method: in vitro
settings: human, hela cells, % viability
The entries below are paired with their reported viability at 28.5 h, 10 µM.
Use % as the unit, but write only the number.

Sample answers from the record:
O=C(CC(Nc1ccc2ccccc2c1)c1ccncc1)c1ccc(Br)cc1 (stereo not drawn) [CBK262209]	98.7
O=C(Nc1nc2ccccc2s1)NC1CC1 [CBK007542]	102
CN1CCN(CC(=O)Nc2cc(N3CCOCC3)ccc2[N+](=O)[O-])CC1 [CBK047475]	92.9
COCCN1CCOC2(CCN(C(=O)c3ccc4ccccc4c3)CC2)C1c1ccccc1O (stereo not drawn) [CBK116232]	107
O=C(NCc1ccc(Cl)c(Cl)c1)c1cncc(-c2ccc(C(=O)N3CCOCC3)cc2)c1 [CBK158612]	98.2

Consider the additional compound presented here.
Incoming: Provide measured viability at 28.5 h, 10 µM value, entry: Cc1nn(CCNC(=O)C(c2ccc(F)cc2)N(C)C)c(C)c1C (stereo not drawn) [CBK282009]
Outgoing: 89.2
